// data source = patent US20210322508A1

- Protocol description: tolerability in healthy mice (body weight)
- Assay type: in vivo
- Condition description: C57BL/6, mouse, in vivo, ip
Residues, ends and D or L forms follow the SMILES beside them.

[
  {
    "Compound": "CC(C)C[C@H](NC(=O)[C@H](Cc1ccccc1)NC(=O)CN)C(=O)N[C@@H](CO)C(=O)N[C@@H](CCCCN)C(=O)N[C@@H](CO)C(=O)N[C@@H](CC(C)C)C(=O)N[C@H](C(=O)N[C@@H](Cc1ccccc1)C(=O)O)C(C)C [GF9] (H-GFLSKSLVF-OH)",
    "MTD at 168 h": "≥ 300 mg/kg"
  }
]

----------
- Protocol description: Mouse tolerability studies
- Assay type: in vivo
- Condition description: female, C57BL/6, mouse, in vivo, ip
Residues, ends and D or L forms follow the SMILES beside them.
Observed property: MTD

[
  {
    "Molecule": "CC(C)C[C@H](NC(=O)[C@H](Cc1ccccc1)NC(=O)CN)C(=O)N[C@@H](CO)C(=O)N[C@@H](CCCCN)C(=O)N[C@@H](CO)C(=O)N[C@@H](CC(C)C)C(=O)N[C@H](C(=O)N[C@@H](Cc1ccccc1)C(=O)O)C(C)C [GF9] (H-GFLSKSLVF-OH)",
    "Result value": "≥ 300 mg/kg"
  }
]
